test system: Wolbachia pipientis; test: Anti-Wolbachia Cell-Based Screen; format: functional; parameters: scale not given: in the data most compounds retested in dose-response had high values; details: 5 µM
Out of some 48,000 compounds screened, about 13,000 (27%) showed an effect of 50% or more. The list shows a part of the results.
Assay Readout: Percent Effect (%)
Give bare numbers, in %.

CNS(=O)(=O)CCNC(=O)[C@@]12CNC[C@@H]1CN(C1CCCC1)C2 = -0.715
c1cnc(N2CCC3(CCCN(CC4CCCCC4)C3)C2)cn1 (stereo not drawn) = 13.44
COc1ncc(CN2CCC3(CCCN(CC4CCCCC4)C3)C2)cn1 (stereo not drawn) = 96.23
COCCc1ncc(CN2CCC(Oc3ccccc3C)CC2)cn1 = 2.53
CC(C)n1ccnc1C1CCN(Cc2ccc(Cl)s2)CC1 = -8.213

Fill in Percent Effect for each of the 7 molecules listed.
1. CCN1C[C@H]2CCN(C(=O)Nc3ccccc3C)CC[C@H]2S1(=O)=O
2. CC(C)(C)NS(=O)(=O)c1ccccc1CNCc1ccccc1
3. Cc1ccc(N2CCN(C(=O)COc3ncccn3)CC2)nn1
4. CCN1Cc2cc(F)ccc2N(C(=O)C2CCC2)CCC1=O
5. Cc1ccc(C(NC(=O)Cn2cc(C3CC3)nn2)C2CC2)cc1 (stereo not drawn)
6. CCN1Cc2ccccc2N(C(=O)C2CCC2)CCC1=O
7. Cc1ccnc(OCC(=O)N2CCN(c3ncccn3)CC2)n1

A.
1: 5.146; 2: 8.138; 3: -4.899; 4: 113.5; 5: -17.63; 6: 94.47; 7: 1.434

Percent Effect measured on Cc1cc(-c2ccc(C(C)N3CCOCC3)cc2)cnc1N (stereo not drawn) = 25.58

Where these numbers come from: ChEMBL document CHEMBL3988442
